Recorded viability at 28.5 h, 10 µM for the following compounds
Assay: in vitro
Settings: human, hela cells, % viability
outcome-measure: viability at 28.5 h, 10 µM (%)

* COc1cc(NC(=O)c2cnc(-c3ccc(Cl)cc3)c(-c3ccco3)c2)cc(C(F)(F)F)c1 | 91.4
* COc1ccc(N2C(=O)CSC23C(=O)Nc2ccc(Br)cc23)cc1 (stereo not shown) | 96.6
* CCCCCC/C=C/c1cnc2nc(NC(=O)NCC)ccc2c1 | 93.3
* CCN1CCN(C(=O)c2ccc3ccccc3n2)CC1 | 133

* * *

Assay: in vitro
Settings: human, hela cells, % viability
outcome-measure: viability at 28.5 h, 10 µM (%)

- CC(=O)c1cccc(NC(=O)Cn2nc(N3CCSCC3)ccc2=O)c1: 102
- CS(=O)(=O)Nc1nccnc1OC1CCN(CCCC#N)CC1: 99.4
- O[C@@H]1C[C@H]2CN(Cc3ccsc3)[C@@H](Cc3ccccc3)CN2C1: 91.9
- Cc1nc(S)[nH]c(=O)c1Cc1ccc(F)cc1: 107
- CCOC(=O)C1CCN(C(=O)c2ccc(OC)cc2)CC1: 99.2
- O=C(O)CC(NCc1ccccc1)C(=O)Nc1cccc(F)c1 (stereo not shown): 92.3
- CCc1noc(C)c1C(=O)N1CC(C(=O)N2CCN(c3ccccc3)CC2)C1: 107
- Cc1ccc(C(=O)Nc2ccccc2C(=O)O)cc1S(=O)(=O)NCc1ccccc1: 98.7
- CCc1nc2ccc(C(=O)Nc3ccc4c(c3)CCN4C(C)=O)cn2c1N(C=O)CC: 102
- Clc1cccc(-c2cncc(NCC3CCOCC3)n2)c1: 103
- CC(C)C[C@@H]1N[C@H](C(=O)NCC2CCOCC2)Cc2c[nH]c3cccc1c23: 103
- O=C(C1CCCC1)N1CCCc2cc(C(O)CN3CCCC3)ccc21 (stereo not shown): 94.2
- O=C(CN1CCOCC1)N1CCc2ccccc21: 96.3
- O=C(c1nccs1)C1CCN(C(=O)c2cccs2)CC1: 106
- C[C@@H](Cn1nnc2ccccc21)NC(=O)Cc1cccs1: 92.8
- O=C(NOCc1ccccc1)c1nn(-c2ncccn2)c2ccccc12: 93.1
- Clc1ccc(C2(N3CCC(N4CCOCC4)CC3)CC2)cc1: 90.8
- Oc1ccccc1/C=N/c1ccc(Cc2ccc(/N=C/c3ccccc3O)c(O)c2)cc1O: 93.4
- CC(O)CNCc1ccc(OCC(=O)NC(C)(C)C)cc1 (stereo not shown) [CBK270232C]: 87.1
- COc1cccc(C(=O)N2CCOC(c3cc(C(=O)NCC(C)C)c4ccccc4n3)C2)c1 (stereo not shown): 97.4
- CC(NS(=O)(=O)c1cc(Cl)ccc1Cl)C(=O)Nc1ccccc1 (stereo not shown): 110
- Cn1cc(-c2ncc(OCCc3c[nH]c4ccccc34)nc2N)cn1: 88.3
- OC1(c2cccnc2F)CCN(Cc2cccc(F)c2F)CC1: 96.2
- O=C1NC2(CCC2)C(=O)N1Cc1coc(-c2cccs2)n1: 95.9
- COc1cc2c(cc1CN(Cc1ccc3c(c1)OCO3)CC(C)O)CCC2 (stereo not shown): 91.6
